system: Pasteurella multocida; test: minimum inhibitory concentration (MIC); conditions: isolate (source animal id): 205
We begin with a simple list: items and their reported minimum inhibitory concentration.
EXPERIMENTAL ENDPOINT: minimum inhibitory concentration

compound=CC[C@H]1OC(=O)C[C@@H](O)[C@H](C)[C@@H](O[C@@H]2O[C@H](C)[C@@H](O)[C@H](N(C)C)[C@H]2O)[C@@H](CCN2CCCCC2)C[C@@H](C)C(=O)/C=C/C(C)=C/[C@@H]1CN1CCCCC1 recorded_value="> 16 µg/mL"
compound=CCCN1C[C@H](C)[C@@H](O)[C@](C)(O)[C@@H](CC)OC(=O)[C@H](C)[C@@H](O[C@H]2C[C@@](C)(OC)[C@@H](O)[C@H](C)O2)[C@H](C)[C@@H](O[C@@H]2O[C@H](C)C[C@H](N(C)C)[C@H]2O)[C@](C)(O)C[C@H]1C recorded_value="> 8 µg/mL"
compound=COc1cc(Cc2cnc(N)nc2N)cc(OC)c1OC.Cc1cc(NS(=O)(=O)c2ccc(N)cc2)no1 recorded_value="≤ 2 µg/mL"
compound="CNC(C)C1CCC(N)C(OC2C(N)CC(N)C(OC3OCC(C)(O)C(NC)C3O)C2O)O1 (stereo not drawn)" recorded_value="4 µg/mL"
compound=COc1cc(NS(=O)(=O)c2ccc(N)cc2)nc(OC)n1 recorded_value="> 256 µg/mL"
compound=CCN1CCN(c2cc3c(cc2F)c(=O)c(C(=O)O)cn3C2CC2)CC1 recorded_value="2 µg/mL"
compound=C=C[C@]1(C)C[C@@H](OC(=O)CSCCN(CC)CC)[C@]2(C)[C@H](C)CC[C@]3(CCC(=O)[C@H]32)[C@@H](C)[C@@H]1O recorded_value="32 µg/mL"
compound=CC1(C)S[C@@H]2[C@H](NC(=O)[C@H](N)c3ccccc3)C(=O)N2[C@H]1C(=O)O recorded_value="≤ 0.25 µg/mL"
